# experimental-system: HIV-1 RT Y181C (Human immunodeficiency virus type 1 group M subtype B, UniProt P03366, Y780C)
# Construct: an HIV RT clone pKRT2 containing only the RT p66 gene regulated by the lac operon/trc promoter
# experimental-protocol: Reverse transcriptase (RT) assay, Y181C mutant
Provide the reported pIC50 of each item.
Would you please state pIC50, meaning minus log10 of the concentration in mol/L, as a bare number?

Request: Value lookup for pIC50; key = CCN1c2ncc(CCOc3cccc4ncccc34)cc2C(=O)Nc2c(C)cc(Cl)nc21 [compound 25]
Response: 7.77

Request: Please answer likewise for CCN1c2ncc(CCOc3ccnc4ccccc34)cc2C(=O)Nc2c(C)ccnc21 [compound 8]
Response: 7.37

Request: Please answer likewise for Cc1cc(F)nc2c1NC(=O)c1cc(CCOc3ccnc4ccccc34)cnc1N2C1CC1 [compound 5]
Response: 7.12

Request: Please answer likewise for CCN1c2ncc(CCOc3ccnc4ccccc34)cc2C(=O)Nc2c(C)cc(F)nc21 [compound 7]
Response: 7.42
